- Test system: Moraxella catarrhalis
- experiment: Antibacterial activity against beta-lactamase deficient Moraxella catarrhalis DRCC 300
- Type: functional
assayMetric: MIC

> print(dat)
                                    compound            studysystem  recordedresult
 1  COC(=S)NC[C@H]1CN(c2ccc(N3CCN(C(=O)C(=O)c4c[nH]c5ccc(Br)cc45)CC3)c(F)c2)C(=O)O1  Moraxella catarrhalis         1 µg/mL
 2  O=C(C(=O)N1CCN(c2ccc(N3C[C@H](CNC(=O)C4CC4)OC3=O)cc2F)CC1)c1c[nH]c2ccc(Br)cc12  Moraxella catarrhalis         4 µg/mL
 3  CC(=O)NC[C@H]1CN(c2ccc(N3CCOCC3)c(F)c2)C(=O)O1 [LINEZOLID]  Moraxella catarrhalis         4 µg/mL
 4  O=C(C(=O)N1CCN(c2ccc(N3C[C@H](CNC(=O)C(F)F)OC3=O)cc2F)CC1)c1c[nH]c2ccc(Br)cc12  Moraxella catarrhalis         2 µg/mL
 5  COC(=O)NC[C@H]1CN(c2ccc(N3CCN(C(=O)C(=O)c4c[nH]c5ccc(Br)cc45)CC3)c(F)c2)C(=O)O1  Moraxella catarrhalis         2 µg/mL
 6  CC(=O)NC[C@H]1CN(c2ccc(N3CCN(C(=O)C(=O)c4c[nH]c5ccc(Br)cc45)CC3)c(F)c2)C(=O)O1  Moraxella catarrhalis         2 µg/mL
 7  O=C(C(=O)N1CCN(c2ccc(N3C[C@H](CNC(=O)C(Cl)Cl)OC3=O)cc2F)CC1)c1c[nH]c2ccc(Br)cc12  Moraxella catarrhalis         2 µg/mL
 8  O=C(C(=O)N1CCN(c2ccc(N3C[C@H](COc4ccon4)OC3=O)cc2F)CC1)c1c[nH]c2ccc(Br)cc12  Moraxella catarrhalis        32 µg/mL
 9  O=C(C(=O)N1CCN(c2ccc(N3C[C@H](Cn4ccnn4)OC3=O)cc2F)CC1)c1c[nH]c2ccc(Br)cc12  Moraxella catarrhalis         4 µg/mL
10  CC(=S)NC[C@H]1CN(c2ccc(N3CCN(C(=O)C(=O)c4c[nH]c5ccc(Br)cc45)CC3)c(F)c2)C(=O)O1  Moraxella catarrhalis         2 µg/mL

---

- experiment: AUC (0 to t) in Swiss albino mouse at 10 mg/kg, po
- Format: ADME, organism-based
- Set-up: dose 10 mg/kg, route oral
- conditions: plasma
Could you label it fulfilled if measured AUC(0-t) is 2000 ng·h/mL or higher, and not fulfilled otherwise?

> print(dat)
                                   compound            cat
1  O=C(C(=O)N1CCN(c2ccc(N3C[C@H](CNC(=O)C4CC4)OC3=O)cc2F)CC1)c1c[nH]c2ccc(Br)cc12  not fulfilled
2  CC(=O)NC[C@H]1CN(c2ccc(N3CCN(C(=O)C(=O)c4c[nH]c5ncccc45)CC3)c(F)c2)C(=O)O1      fulfilled
3  CC(=O)NC[C@H]1CN(c2ccc(N3CCN(C(=O)C(=O)c4c[nH]c5ccc(Br)cc45)CC3)c(F)c2)C(=O)O1      fulfilled
4  CC(=O)NC[C@H]1CN(c2ccc(N3CCOCC3)c(F)c2)C(=O)O1 [LINEZOLID]      fulfilled
5  CC(=O)NC[C@H]1CN(c2ccc(N3CCN(C(=O)C(=O)c4c[nH]c5ccc(C#N)cc45)CC3)c(F)c2)C(=O)O1  not fulfilled

---

- Test system: Staphylococcus aureus
- experiment: Antibacterial activity against methicillin-resistant Staphylococcus aureus DRCC 019
- Type: functional
Overview of recorded MIC for various compounds
assayMetric: MIC (µg/mL)

> print(dat)
                       structuresmilesstring            studysystem  unitslabel  recordedresult
 1  COC(=O)NC[C@H]1CN(c2ccc(N3CCN(C(=O)C(=O)c4c[nH]c5ccc(Br)cc45)CC3)c(F)c2)C(=O)O1  Staphylococcus aureus       µg/mL             0.5
 2  CC(=O)NC[C@H]1CN(c2ccc(N3CCN(C(=O)C(=O)c4cn(C)c5ccccc45)CC3)c(F)c2)C(=O)O1  Staphylococcus aureus       µg/mL               1
 3  O=C(C(=O)N1CCN(c2ccc(N3C[C@H](COc4ccon4)OC3=O)cc2F)CC1)c1c[nH]c2ccc(Br)cc12  Staphylococcus aureus       µg/mL              32
 4  CC(=S)NC[C@H]1CN(c2ccc(N3CCN(C(=O)C(=O)c4c[nH]c5ccc(Br)cc45)CC3)c(F)c2)C(=O)O1  Staphylococcus aureus       µg/mL            0.25
 5  O=C(C(=O)N1CCN(c2ccc(N3C[C@H](CNC(=O)C(F)F)OC3=O)cc2F)CC1)c1c[nH]c2ccc(Br)cc12  Staphylococcus aureus       µg/mL               1
 6  CC(=O)NC[C@H]1CN(c2ccc(N3CCN(C(=O)C(=O)c4c[nH]c5ncccc45)CC3)c(F)c2)C(=O)O1  Staphylococcus aureus       µg/mL               1
 7  O=C(C(=O)N1CCN(c2ccc(N3C[C@H](CNC(=O)C4CC4)OC3=O)cc2F)CC1)c1c[nH]c2ccc(Br)cc12  Staphylococcus aureus       µg/mL               2
 8  O=C(C(=O)N1CCN(c2ccc(N3C[C@H](Cn4ccnn4)OC3=O)cc2F)CC1)c1c[nH]c2ccc(Br)cc12  Staphylococcus aureus       µg/mL             0.5
 9  CC(=O)NC[C@H]1CN(c2ccc(N3CCOCC3)c(F)c2)C(=O)O1  Staphylococcus aureus       µg/mL               1
10  COC(=S)NC[C@H]1CN(c2ccc(N3CCN(C(=O)C(=O)c4c[nH]c5ccc(Br)cc45)CC3)c(F)c2)C(=O)O1  Staphylococcus aureus       µg/mL               1

---

- experiment: Drug elimination in Swiss albino mouse at 10 mg/kg, po
- Type: ADME, organism-based
- Set-up: dose 10 mg/kg, route oral
- conditions: in vivo
assayMetric: k el

> print(dat)
                      structuresmilesstring  assaymetric  recordedresult
1  CC(=O)NC[C@H]1CN(c2ccc(N3CCN(C(=O)C(=O)c4c[nH]c5ccc(Br)cc45)CC3)c(F)c2)C(=O)O1         k el    8.89e-05 s⁻¹
2  CC(=O)NC[C@H]1CN(c2ccc(N3CCN(C(=O)C(=O)c4c[nH]c5ncccc45)CC3)c(F)c2)C(=O)O1         k el    0.000219 s⁻¹
3  O=C(C(=O)N1CCN(c2ccc(N3C[C@H](CNC(=O)C4CC4)OC3=O)cc2F)CC1)c1c[nH]c2ccc(Br)cc12         k el    0.000169 s⁻¹
4  CC(=O)NC[C@H]1CN(c2ccc(N3CCN(C(=O)C(=O)c4c[nH]c5ccc(C#N)cc45)CC3)c(F)c2)C(=O)O1         k el    0.000161 s⁻¹
5  CC(=O)NC[C@H]1CN(c2ccc(N3CCOCC3)c(F)c2)C(=O)O1         k el    0.000142 s⁻¹

---

- experiment: Half life in Swiss albino mouse at 10 mg/kg, po
- Format: ADME, organism-based
- Set-up: dose 10 mg/kg, route oral
- conditions: in vivo
Each entry below lists one item and its recorded half-life value.
assayMetric: half-life (h)

> print(dat)
                      structuresmilesstring  unitslabel  recordedresult
1  CC(=O)NC[C@H]1CN(c2ccc(N3CCN(C(=O)C(=O)c4c[nH]c5ncccc45)CC3)c(F)c2)C(=O)O1           h            0.87
2  CC(=O)NC[C@H]1CN(c2ccc(N3CCN(C(=O)C(=O)c4c[nH]c5ccc(C#N)cc45)CC3)c(F)c2)C(=O)O1           h            1.19
3  O=C(C(=O)N1CCN(c2ccc(N3C[C@H](CNC(=O)C4CC4)OC3=O)cc2F)CC1)c1c[nH]c2ccc(Br)cc12           h            1.13
4  CC(=O)NC[C@H]1CN(c2ccc(N3CCN(C(=O)C(=O)c4c[nH]c5ccc(Br)cc45)CC3)c(F)c2)C(=O)O1           h            2.17
5  CC(=O)NC[C@H]1CN(c2ccc(N3CCOCC3)c(F)c2)C(=O)O1           h            1.37

---

- experiment: Tmax in Swiss albino mouse at 10 mg/kg, po
- Assay type: ADME, organism-based
- Parameters: dose 10 mg/kg, route oral
- conditions: in vivo
Tmax reference
assayMetric: Tmax (h)

> print(dat)
                      structuresmilesstring  unitslabel  recordedresult
1  CC(=O)NC[C@H]1CN(c2ccc(N3CCN(C(=O)C(=O)c4c[nH]c5ncccc45)CC3)c(F)c2)C(=O)O1           h             0.5
2  CC(=O)NC[C@H]1CN(c2ccc(N3CCN(C(=O)C(=O)c4c[nH]c5ccc(Br)cc45)CC3)c(F)c2)C(=O)O1           h               2
3  CC(=O)NC[C@H]1CN(c2ccc(N3CCOCC3)c(F)c2)C(=O)O1           h            0.25
4  O=C(C(=O)N1CCN(c2ccc(N3C[C@H](CNC(=O)C4CC4)OC3=O)cc2F)CC1)c1c[nH]c2ccc(Br)cc12           h               2
5  CC(=O)NC[C@H]1CN(c2ccc(N3CCN(C(=O)C(=O)c4c[nH]c5ccc(C#N)cc45)CC3)c(F)c2)C(=O)O1           h               3
